# TARGET_UNDER_TEST: HPPD variant AVESA V296 (SEQ ID NO: 20) (Avena sativa, UniProt A0ACD5V6K6, A327R/G411A/I340E/L359Y/R214G/V218I)
# Sequence (A0ACD5V6K6 entry or part of it R214G/V218I/A327R/I340E/L359Y/G411A): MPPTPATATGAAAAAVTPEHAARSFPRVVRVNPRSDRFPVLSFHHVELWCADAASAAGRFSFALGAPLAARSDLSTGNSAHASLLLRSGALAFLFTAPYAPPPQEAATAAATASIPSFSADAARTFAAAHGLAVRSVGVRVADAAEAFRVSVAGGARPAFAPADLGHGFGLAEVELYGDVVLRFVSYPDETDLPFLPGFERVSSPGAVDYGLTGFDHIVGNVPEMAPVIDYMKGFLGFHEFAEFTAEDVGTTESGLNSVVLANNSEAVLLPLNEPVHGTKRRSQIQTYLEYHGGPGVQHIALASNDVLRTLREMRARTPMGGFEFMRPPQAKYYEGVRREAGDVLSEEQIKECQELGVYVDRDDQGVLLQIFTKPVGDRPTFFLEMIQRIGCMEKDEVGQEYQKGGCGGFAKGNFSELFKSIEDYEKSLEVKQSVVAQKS
# PROTOCOL: biochemical
# Assay type: biochemical
# MEASUREMENT_PARAMETERS: AVESA V296, SEQ ID NO: 20; read-out: IC50
ASSAY_ENDPOINT: pIC50
In textbook form, pIC50 equals minus log to base ten of the concentration in mol/L.

Provide only the value of recorded pIC50 for COc1ccc(-n2nc(C)cc(C(=O)C3C(=O)CCCC3=O)c2=O)cc1OC [Herbicide C, dioxopyritrione]
5.89
